Reported pKi values follow for various compounds
target: rat A1 receptors (rA1) (Rattus norvegicus, UniProt P25099); construct: to A1 receptors from rat cerebral cortical membranes; from tissue; host or cells: rat cerebral cortical (brain) membranes; assay: Displacement of [3H]R-PIA binding in rat brain (cerebral cortical) membranes; conditions: Table 1; [3H]R-PIA, rat brain membranes; read-out: rA1 Ki or IC50
Sequence (P25099 whole entry): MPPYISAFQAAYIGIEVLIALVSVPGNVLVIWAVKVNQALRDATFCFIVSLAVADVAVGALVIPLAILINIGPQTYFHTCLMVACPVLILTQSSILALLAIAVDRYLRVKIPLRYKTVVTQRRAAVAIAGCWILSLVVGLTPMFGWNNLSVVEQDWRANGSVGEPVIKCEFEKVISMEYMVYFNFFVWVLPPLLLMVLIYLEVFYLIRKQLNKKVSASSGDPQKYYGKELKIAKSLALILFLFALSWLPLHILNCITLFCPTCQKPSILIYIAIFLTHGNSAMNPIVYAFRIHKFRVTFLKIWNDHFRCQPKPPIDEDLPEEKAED
pKi (log units): -log10 of the concentration in mol/L.

// below: answered compounds
| chemical structure | measure | recorded number |
| --- | --- | --- |
| O=C(O)C=Cc1ccc(-c2nc3c([nH]2)c(=O)n(CC2CCCCC2)c(=O)n3CC2CCCCC2)cc1 | pKi | 6.22 |
| C=CCn1c(=O)c2[nH]c(-c3ccc(OCC(=O)O)cc3)nc2n(CC=C)c1=O | pKi | 6.12 |
| O=C(O)/C=C/c1ccc(-c2nc3c([nH]2)c(=O)n(Cc2ccccc2)c(=O)n3Cc2ccccc2)cc1 | pKi | 6.70 |
| CCCn1c(=O)c2[nH]c(-c3ccc(OCC(=O)ON4C(=O)CCC4=O)cc3)nc2n(CCC)c1=O | pKi | 6.82 |
| O=C(O)COc1ccc(-c2nc3c([nH]2)c(=O)n(Cc2ccccc2)c(=O)n3Cc2ccccc2)cc1 | pKi | 6.17 |

Give the measured pKi of CCCCn1c(=O)c2[nH]c(-c3ccc(OCC(=O)O)cc3)nc2n(CCCC)c1=O .
7.37

----------
biological target: rat A2A receptors (rA2A) (Rattus norvegicus, UniProt P30543); construct: to A2A receptors from rat striatal membranes was performed as described; from tissue; host or cells: rat striatal membranes; experiment: Displacement of [3H]CGS 21680 binding in rat striatal membranes; details: Table 2; read-out: rA2A Ki or IC50
Sequence (P30543 whole entry): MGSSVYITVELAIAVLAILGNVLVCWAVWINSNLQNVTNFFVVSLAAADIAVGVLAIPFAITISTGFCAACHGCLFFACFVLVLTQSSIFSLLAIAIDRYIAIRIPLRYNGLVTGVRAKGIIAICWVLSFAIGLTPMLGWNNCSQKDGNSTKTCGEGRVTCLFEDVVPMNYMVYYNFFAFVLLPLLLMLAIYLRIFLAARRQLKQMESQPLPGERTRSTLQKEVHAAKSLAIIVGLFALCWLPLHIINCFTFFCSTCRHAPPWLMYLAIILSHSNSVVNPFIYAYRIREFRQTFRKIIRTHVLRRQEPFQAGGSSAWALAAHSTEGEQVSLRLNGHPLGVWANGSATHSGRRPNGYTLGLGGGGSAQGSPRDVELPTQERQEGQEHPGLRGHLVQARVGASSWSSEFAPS
measure: pKi
Reminder that pKi is minus the log10 of a molar concentration.

Observe how each entry below is paired with its result.
| compound | measure | recorded number |
| --- | --- | --- |
| CCCn1c(=O)c2[nH]c(-c3ccc(OCC(=O)Nc4cccc(C(C)=O)c4)cc3)nc2n(CCC)c1=O [Compound 19] | pKi | 6.02 |
| CCCn1c(=O)c2[nH]c(-c3ccc(OCC(=O)Nc4ccc(Br)cc4)cc3)nc2n(CCC)c1=O [Compound 32] | pKi | 6.66 |
| CCCn1c(=O)c2[nH]c(-c3ccc(OCC(=O)N(C)c4ccccc4)cc3)nc2n(CCC)c1=O [Compound 16] | pKi | 6.30 |
| CCCn1c(=O)c2[nH]c(-c3ccc(OCC(=O)Nc4ccc(C(=O)NC)cc4)cc3)nc2n(CCC)c1=O [Compound 23] | pKi | 7.01 |
| CCCn1c(=O)c2[nH]c(-c3ccc(OCC(=O)Nc4ccc(I)cc4)cc3)nc2n(CCC)c1=O [Compound 33] | pKi | 6.82 |

Kindly review the next compound as well.
Tell me reported pKi for CCCn1c(=O)c2[nH]c(-c3ccc(OCC(N)=O)cc3)nc2n(CCC)c1=O [Compound 11] , tested with rat A2A receptors (rA2A) (Rattus norvegicus, UniProt P30543).
7.12

----------
Catalogue of melting point readings, one per entry.

Please review the entries below; each comes with its answer.
| compound | melting point |
| --- | --- |
| CCCn1c(=O)c2[nH]c(-c3ccc(OCC(=O)Nc4ccc(Cl)cc4)cc3)nc2n(CCC)c1=O [Compound 31] | 309 °C |
| CCCn1c(=O)c2[nH]c(-c3ccc(OCC(=O)N(C)c4ccccc4)cc3)nc2n(CCC)c1=O [Compound 16] | 215 °C |
| CCCn1c(=O)c2[nH]c(-c3ccc(OCC(=O)Nc4ccc(C(=O)OC)cc4)cc3)nc2n(CCC)c1=O [Compound 21] | > 310 °C |
| CCCn1c(=O)c2[nH]c(-c3ccc(OCC(=O)N(CC(=O)OCC)CC(=O)OCC)cc3)nc2n(CCC)c1=O [Compound 17] | 225 °C |
| O=C(O)/C=C/c1ccc(-c2nc3c([nH]2)c(=O)n(Cc2ccccc2)c(=O)n3Cc2ccccc2)cc1 [Compound 10] | > 310 °C |
| CCCn1c(=O)c2[nH]c(-c3ccc(OCC(=O)Nc4ccc(C(N)=O)cc4)cc3)nc2n(CCC)c1=O [Compound 22] | > 310 °C |
| CC(=O)c1ccccc1NC(=O)/C=C/c1ccc(-c2nc3c([nH]2)c(=O)n(Cc2ccccc2)c(=O)n3Cc2ccccc2)cc1 (hydrate or solvate) [Compound 37] | 308 to 309 °C |
| CCCn1c(=O)c2[nH]c(-c3ccc(OCC(=O)Nc4ccc(C(=O)O)cc4)cc3)nc2n(CCC)c1=O [Compound 24] | > 310 °C |

Proceeding to the next compound to report its melting point.
Fill in the blank: the reported melting point of CCCn1c(=O)c2[nH]c(-c3ccc(OCC(=O)Nc4ccc(I)cc4)cc3)nc2n(CCC)c1=O [Compound 33] is ____.
> 310 °C

----------
target: A3 receptors (r) (Rattus norvegicus)
Sequence (P28647 whole entry): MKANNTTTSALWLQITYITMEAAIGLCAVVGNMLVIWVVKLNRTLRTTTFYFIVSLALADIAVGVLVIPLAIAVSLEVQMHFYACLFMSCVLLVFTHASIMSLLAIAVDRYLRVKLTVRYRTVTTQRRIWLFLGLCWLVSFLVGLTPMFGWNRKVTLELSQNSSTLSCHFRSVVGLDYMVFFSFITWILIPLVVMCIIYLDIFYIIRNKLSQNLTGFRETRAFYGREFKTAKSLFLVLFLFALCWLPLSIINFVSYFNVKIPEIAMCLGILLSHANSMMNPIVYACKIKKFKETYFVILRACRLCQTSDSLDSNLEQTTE
measure: Ki (µM)
Numbers only here, please. The scale is µM.

Please look up its Ki: C=CCn1c(=O)c2[nH]c(-c3ccc(OCC(=O)O)cc3)nc2n(CC=C)c1=O
173

----------
target: recombinant human A2A receptors (hA2A) (Homo sapiens); experiment: Radioligand binding (125I-ZM241385) at recombinant human A2A receptors in HEK-293 cells; conditions: read-out: hA2A Ki, values marked (h)^a; Table 4; vs [125I]ZM241385, HEK-293
Sequence (P29274 whole entry): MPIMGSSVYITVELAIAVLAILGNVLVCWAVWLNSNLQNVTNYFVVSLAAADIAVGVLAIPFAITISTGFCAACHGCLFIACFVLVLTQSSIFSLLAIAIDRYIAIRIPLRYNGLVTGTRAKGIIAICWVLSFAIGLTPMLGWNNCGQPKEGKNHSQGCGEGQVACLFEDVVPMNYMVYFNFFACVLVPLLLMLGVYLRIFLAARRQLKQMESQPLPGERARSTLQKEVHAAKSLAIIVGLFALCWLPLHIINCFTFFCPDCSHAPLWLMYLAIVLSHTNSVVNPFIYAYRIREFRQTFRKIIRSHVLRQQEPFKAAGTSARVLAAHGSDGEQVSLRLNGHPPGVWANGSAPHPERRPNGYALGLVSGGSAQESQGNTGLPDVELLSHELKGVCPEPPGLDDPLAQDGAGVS
Catalogue of pKi values
To interpret pKi, take it as minus log10 of a concentration measured in moles per litre.

Worked cases, answers included:
| compound | measure | recorded number |
| --- | --- | --- |
| CCCn1c(=O)c2[nH]c(-c3ccc(OCC(=O)NN4C(=O)c5ccccc5C4=O)cc3)nc2n(CCC)c1=O [Compound 57] | pKi | 6.44 |
| CCCn1c(=O)c2[nH]c(-c3ccc(OCC(=O)NNC(C)=O)cc3)nc2n(CCC)c1=O [Compound 41] | pKi | 6.73 |
| CCCn1c(=O)c2[nH]c(-c3ccc(OCC(=O)NNC(=O)CNC(=O)CNC(=O)OCc4ccccc4)cc3)nc2n(CCC)c1=O [Compound 64] | pKi | 6.08 |
| CCCn1c(=O)c2[nH]c(-c3ccc(OCC(=O)NN4C(=O)CCC4=O)cc3)nc2n(CCC)c1=O [Compound 43] | pKi | 7.57 |
| CCCn1c(=O)[nH]c(=O)c2[nH]c(-c3ccc(OCC(=O)NN4C(=O)C(C)=C(C)C4=O)cc3)nc21 [Compound 48] | pKi | 5.26 |

// returns reported pKi for input CCCn1c(=O)c2[nH]c(-c3ccc(OCC(=O)NNC(=O)C4=C(C(=O)O)CCCC4)cc3)nc2n(CCC)c1=O [Compound 55]
7.02

Which measured pKi value corresponds to CCCn1c(=O)c2[nH]c(-c3ccc(OCC(=O)NNC(=O)CCC(=O)O)cc3)nc2n(CCC)c1=O [Compound 42] ?
6.10

----------
molecular target: recombinant human A1 receptors (hA1) (Homo sapiens, UniProt P30542); assay: Radioligand binding ([3H]CPX) at recombinant human A1 receptors in HEK-293 cells; conditions: read-out: hA1 Ki, values marked (h)^a; Table 4; vs [3H]CPX, HEK-293
Sequence (P30542 whole entry): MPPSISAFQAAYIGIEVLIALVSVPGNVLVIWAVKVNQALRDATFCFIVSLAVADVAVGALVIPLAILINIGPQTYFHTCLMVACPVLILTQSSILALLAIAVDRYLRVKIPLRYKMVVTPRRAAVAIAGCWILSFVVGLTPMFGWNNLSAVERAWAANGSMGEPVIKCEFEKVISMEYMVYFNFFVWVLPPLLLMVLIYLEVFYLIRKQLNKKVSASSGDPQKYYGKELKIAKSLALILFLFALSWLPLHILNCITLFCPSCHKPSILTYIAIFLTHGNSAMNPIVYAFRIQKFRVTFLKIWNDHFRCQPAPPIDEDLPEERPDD
measure: pKi
In plain terms, pKi is the concentration in mol/L turned into minus its base-10 logarithm.

| chemical structure | pKi |
| --- | --- |
| CCCn1c(=O)[nH]c(=O)c2[nH]c(-c3ccc(OCC(=O)NN4C(=O)C(C)=C(C)C4=O)cc3)nc21 | 5.09 |
| CCCn1c(=O)c2[nH]c(-c3ccc(OCC(=O)NNC(=O)C4=C(C(=O)O)CCCC4)cc3)nc2n(CCC)c1=O | 6.84 |
| CCCn1c(=O)c2[nH]c(-c3ccc(OCC(=O)NN4C(=O)C(C)=C(C)C4=O)cc3)nc2n(CCC)c1=O | 5.52 |

Consider the molecule CCCn1c(=O)c2[nH]c(-c3ccc(OCC(=O)NNC(=O)CNC(=O)CNC(=O)OCc4ccccc4)cc3)nc2n(CCC)c1=O and give its measured pKi.
6.70

----------
molecular target: rat A2A receptors (rA2A) (Rattus norvegicus, UniProt P30543); construct: to A2A receptors from rat striatal membranes was performed as described; from tissue; host or cells: rat striatal membranes; assay: Displacement of [3H]CGS 21680 binding in rat striatal membranes; conditions: Table 3; read-out: rA2A Ki or IC50
Entries and their measured Ki follow.
Give your result in nM as a bare value.

| chemical structure | recorded number |
| --- | --- |
| CCCn1c(=O)c2[nH]c(-c3ccc(/C=C/C(=O)NN4C(=O)C(C)=C(C)C4=O)cc3)nc2n(CCC)c1=O | 406 |
| CCn1c(=O)c2[nH]c(-c3ccc(OCC(=O)Nc4ccc(C)cc4)cc3)nc2n(CC)c1=O | 71.1 |

// query Ki value for entry CCCn1c(=O)c2[nH]c(-c3ccc(/C=C/C(=O)Nc4ccccc4C(C)=O)cc3)nc2n(CCC)c1=O
143

Where do these numbers come from? They come from patent US6545002B1.
